DC50 for assorted compounds
TARGET SYSTEM: SMARCA2 (Homo sapiens)
Sequence (P51531 whole entry): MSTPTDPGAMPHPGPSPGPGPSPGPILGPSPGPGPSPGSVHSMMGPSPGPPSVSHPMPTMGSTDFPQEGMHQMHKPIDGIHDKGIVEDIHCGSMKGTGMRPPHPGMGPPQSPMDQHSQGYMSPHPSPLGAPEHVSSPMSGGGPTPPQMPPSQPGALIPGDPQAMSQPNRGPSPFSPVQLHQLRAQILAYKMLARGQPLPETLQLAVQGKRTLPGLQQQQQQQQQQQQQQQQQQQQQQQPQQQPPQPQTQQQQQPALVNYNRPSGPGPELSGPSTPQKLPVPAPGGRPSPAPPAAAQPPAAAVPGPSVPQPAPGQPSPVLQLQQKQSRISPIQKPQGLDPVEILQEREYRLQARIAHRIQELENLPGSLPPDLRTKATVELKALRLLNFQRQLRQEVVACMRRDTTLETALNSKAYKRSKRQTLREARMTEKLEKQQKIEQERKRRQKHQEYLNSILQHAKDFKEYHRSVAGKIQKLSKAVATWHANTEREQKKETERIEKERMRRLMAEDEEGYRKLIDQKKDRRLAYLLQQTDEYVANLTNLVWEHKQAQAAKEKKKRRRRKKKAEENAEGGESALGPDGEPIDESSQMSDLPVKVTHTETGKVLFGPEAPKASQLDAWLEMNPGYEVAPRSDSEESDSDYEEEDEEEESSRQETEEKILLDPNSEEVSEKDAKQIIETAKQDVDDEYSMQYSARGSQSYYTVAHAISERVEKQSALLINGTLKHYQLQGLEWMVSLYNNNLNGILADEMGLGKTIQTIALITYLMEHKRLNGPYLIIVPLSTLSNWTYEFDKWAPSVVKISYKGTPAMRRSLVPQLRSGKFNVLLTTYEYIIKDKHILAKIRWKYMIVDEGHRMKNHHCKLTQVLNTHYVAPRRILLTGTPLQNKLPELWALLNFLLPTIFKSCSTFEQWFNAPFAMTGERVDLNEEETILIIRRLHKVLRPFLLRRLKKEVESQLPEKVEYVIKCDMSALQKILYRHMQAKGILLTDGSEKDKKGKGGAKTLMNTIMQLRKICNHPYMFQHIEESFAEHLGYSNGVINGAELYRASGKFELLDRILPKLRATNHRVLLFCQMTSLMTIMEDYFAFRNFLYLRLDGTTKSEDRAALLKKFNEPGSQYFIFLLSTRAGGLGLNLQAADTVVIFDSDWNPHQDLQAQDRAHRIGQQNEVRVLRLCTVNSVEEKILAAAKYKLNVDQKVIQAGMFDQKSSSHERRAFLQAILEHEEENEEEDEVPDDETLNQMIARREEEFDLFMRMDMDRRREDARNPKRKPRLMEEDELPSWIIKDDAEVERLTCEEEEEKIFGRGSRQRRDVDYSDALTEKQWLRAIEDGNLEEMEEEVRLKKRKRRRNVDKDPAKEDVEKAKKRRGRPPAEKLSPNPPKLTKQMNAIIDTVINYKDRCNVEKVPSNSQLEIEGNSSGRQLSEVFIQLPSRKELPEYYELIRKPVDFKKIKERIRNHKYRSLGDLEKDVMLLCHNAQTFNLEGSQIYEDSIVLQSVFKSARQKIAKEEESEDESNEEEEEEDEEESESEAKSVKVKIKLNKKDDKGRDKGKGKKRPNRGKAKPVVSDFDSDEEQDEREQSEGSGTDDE
PROTOCOL NOTES: HiBiT assay for protein degradation, Hela SMARCA2-HiBiT cells (A series)
Format: cell-based
Design: Hela cells were genetically modified via CRISPR/Cas9 to fuse HiBiT to the carboxy terminus of SMARCA2; host or cells: HeLa (CRISPR/Cas9 HiBiT knock-in)
MEASUREMENT CONTEXT: Hela SMARCA2-HiBiT cells, 24 hours treatment; read-out: SMARC A2 Hela HiBit DC50

Example cases with answers are listed next.
compound=Cc1ncsc1-c1ccc([C@H](C)NC(=O)[C@@H]2C[C@@H](O)CN2C(=O)[C@H](C2CCCCC2)n2cc([C@H]3CC[C@H](CN4CCC(c5ccc6c(c5)-n5c(nc(=O)c7c(Cl)cccc75)C6(C)C)CC4)CC3)nn2)cc1 assay_endpoint=DC50 test_result="< 10 nM"
compound=Cc1ncsc1-c1ccc([C@@H](NC(=O)[C@@H]2C[C@@H](O)CN2C(=O)[C@@H](n2cc(C3CC3)nn2)C(C)(C)C)C(=O)N2CCC3(CCC(N4CCC(c5ccc6c(c5)-n5c(nc(=O)c7c(Br)cccc75)C65CCCCC5)CC4)CC3)CC2)cc1 assay_endpoint=DC50 test_result="< 10 nM"
compound=Cc1ncsc1-c1ccc([C@H](C)NC(=O)[C@@H]2C[C@@H](O)CN2C(=O)[C@H](C2CCNCC2)n2cc([C@H]3CC[C@H](CN4CCC(c5ccc6c(c5)-n5c(nc(=O)c7c(Cl)cccc75)C65CCCCC5)CC4)CC3)nn2)cc1 assay_endpoint=DC50 test_result="100 to 1000 nM"

Q) # lookup: DC50 of "COCCOC[C@H](NC(=O)[C@@H]1C[C@@H](O)CN1C(=O)[C@@H](n1cc([C@H]2CC[C@H](CN3CCC(c4ccc5c(c4)-n4c(nc(=O)c6c(Cl)cccc64)C5(C)C)CC3)CC2)nn1)C(C)(C)C)c1ccc(-c2scnc2C)cc1"
A) < 10 nM

----------
TARGET SYSTEM: SMARCA4 (Homo sapiens, UniProt P51532)
Sequence (P51532 whole entry): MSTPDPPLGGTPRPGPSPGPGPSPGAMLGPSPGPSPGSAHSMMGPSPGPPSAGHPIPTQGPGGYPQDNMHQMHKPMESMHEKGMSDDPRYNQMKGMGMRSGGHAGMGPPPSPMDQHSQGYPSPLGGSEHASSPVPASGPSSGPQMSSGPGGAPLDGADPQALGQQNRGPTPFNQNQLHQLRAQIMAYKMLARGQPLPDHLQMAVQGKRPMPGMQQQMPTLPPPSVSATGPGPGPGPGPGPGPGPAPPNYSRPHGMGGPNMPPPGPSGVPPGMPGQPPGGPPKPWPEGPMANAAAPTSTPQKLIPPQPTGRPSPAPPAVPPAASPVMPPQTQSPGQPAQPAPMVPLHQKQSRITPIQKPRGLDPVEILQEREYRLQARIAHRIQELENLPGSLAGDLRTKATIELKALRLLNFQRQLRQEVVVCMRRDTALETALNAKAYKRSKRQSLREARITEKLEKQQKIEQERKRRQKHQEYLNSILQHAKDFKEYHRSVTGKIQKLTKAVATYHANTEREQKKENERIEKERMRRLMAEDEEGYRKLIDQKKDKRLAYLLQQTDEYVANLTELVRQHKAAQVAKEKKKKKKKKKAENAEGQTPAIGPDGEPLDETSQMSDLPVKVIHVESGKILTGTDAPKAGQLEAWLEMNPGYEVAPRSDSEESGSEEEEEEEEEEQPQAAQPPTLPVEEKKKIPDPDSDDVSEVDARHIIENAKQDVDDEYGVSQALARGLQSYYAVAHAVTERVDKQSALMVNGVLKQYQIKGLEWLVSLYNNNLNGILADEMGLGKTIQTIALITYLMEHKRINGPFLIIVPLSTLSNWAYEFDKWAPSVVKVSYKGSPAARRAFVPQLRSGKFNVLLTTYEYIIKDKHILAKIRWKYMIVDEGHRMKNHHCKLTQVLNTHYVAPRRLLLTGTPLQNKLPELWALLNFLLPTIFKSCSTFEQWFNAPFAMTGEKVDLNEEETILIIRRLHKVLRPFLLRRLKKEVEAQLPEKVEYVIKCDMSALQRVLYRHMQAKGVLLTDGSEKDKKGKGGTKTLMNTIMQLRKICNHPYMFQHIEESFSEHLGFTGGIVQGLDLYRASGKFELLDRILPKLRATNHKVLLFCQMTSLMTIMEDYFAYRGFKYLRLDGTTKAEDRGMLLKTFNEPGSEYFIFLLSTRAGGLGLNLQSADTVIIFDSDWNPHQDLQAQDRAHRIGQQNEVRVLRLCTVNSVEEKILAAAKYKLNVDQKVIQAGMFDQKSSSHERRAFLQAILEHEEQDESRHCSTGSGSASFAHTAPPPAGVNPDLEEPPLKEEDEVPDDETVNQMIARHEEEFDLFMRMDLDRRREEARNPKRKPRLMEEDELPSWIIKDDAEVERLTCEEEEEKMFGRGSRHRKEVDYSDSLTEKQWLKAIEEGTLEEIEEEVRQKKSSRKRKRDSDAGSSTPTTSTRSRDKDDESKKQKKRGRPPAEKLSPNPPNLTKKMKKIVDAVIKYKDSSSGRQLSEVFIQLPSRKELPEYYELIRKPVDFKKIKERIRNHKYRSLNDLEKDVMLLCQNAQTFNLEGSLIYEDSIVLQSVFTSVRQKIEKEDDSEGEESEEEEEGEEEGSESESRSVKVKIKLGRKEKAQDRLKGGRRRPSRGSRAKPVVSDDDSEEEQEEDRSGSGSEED
PROTOCOL NOTES: HiBit assay in engineered HT1080 CRISPR knock-in cell, 6 hrs (B series), SMARCA4
Assay type: cell-based
MEASUREMENT CONTEXT: HT-1080, HT1080 CRISPR knock-in cells, 6 hrs incubation; read-out: SMARC A4 HT1080 HiBit Dmax(%)
ASSAY ENDPOINT: Dmax

Worked examples, 6 compounds total:
compound=C#Cc1ccc([C@H](CN2CCOCC2)NC(=O)[C@@H]2C[C@@H](O)CN2C(=O)[C@@H](n2cc([C@H]3CC[C@H](CN4CCC(c5ccc6c(c5)-n5c(nc(=O)c7c(Cl)cccc75)C6(C)C)CC4)CC3)nn2)C(C)(C)C)cc1 target_system="SMARCA4 (Homo sapiens, UniProt P51532)" test_result="70 to 90%"
compound=Cc1nc(C)c(-c2ccc([C@H](C)NC(=O)[C@@H]3C[C@@H](O)CN3C(=O)[C@@H](c3cc(N4CCC(c5cccc6c5C(C)(C)c5nc(=O)c7c(Cl)cccc7n5-6)CC4)no3)C(C)C)cc2)s1 target_system="SMARCA4 (Homo sapiens, UniProt P51532)" test_result="< 50%"
compound=Cc1ncsc1-c1ccc([C@H](CCCCCn2cc(-c3ccc4c(c3)-n3c(nc(=O)c5c(Cl)cccc53)C4(C)C)cn2)NC(=O)[C@@H]2C[C@@H](O)CN2C(=O)[C@@H](NC(=O)C2(F)CC2)C(C)(C)C)cc1 target_system="SMARCA4 (Homo sapiens, UniProt P51532)" test_result="70 to 90%"
compound=Cc1ncsc1-c1ccc([C@H](CC(=O)NCCN2CCC(c3ccc4c(c3)-n3c(nc(=O)c5c(Cl)cccc53)C4(C)C)CC2)NC(=O)[C@@H]2C[C@@H](O)CN2C(=O)[C@@H](NC(=O)C2(F)CC2)C(C)(C)C)cc1 target_system="SMARCA4 (Homo sapiens, UniProt P51532)" test_result="< 50%"
compound=Cc1ncsc1-c1ccc([C@H](C)NC(=O)[C@@H]2C[C@@H](O)CN2C(=O)[C@@H](NC(=O)[C@H]2CC[C@H](CN3CCC(c4ccc5c(c4)-n4c(nc(=O)c6c(Br)cccc64)C5(C)C)CC3)CC2)C(C)(C)C)cc1 target_system="SMARCA4 (Homo sapiens, UniProt P51532)" test_result="< 50%"
compound=C[C@H](NC(=O)[C@@H]1C[C@@H](O)CN1C(=O)[C@@H](n1cc([C@H]2CC[C@H](CN3CCN(c4ccc5c(c4)-n4c(nc(=O)c6c(Cl)cccc64)C5(C)C)CC3)CC2)nn1)C(C)(C)C)c1ccc(-c2ccn[nH]2)cc1 target_system="SMARCA4 (Homo sapiens, UniProt P51532)" test_result="70 to 90%"

Q) What measured Dmax goes with "CC#Cc1ccc([C@H](C)NC(=O)[C@@H]2C[C@@H](O)CN2C(=O)[C@H](C(C)C)n2cc([C@H]3CC[C@H](CN4CCC(c5ccc6c(c5)-n5c(nc(=O)c7c(Cl)cccc75)C6(C)C)CC4)CC3)nn2)cc1" ?
A) 50 to 69%

Q) Please give the measured Dmax for this compound: Cc1ncsc1-c1ccc([C@H](C)NC(=O)[C@@H]2C[C@@H](O)CN2C(=O)C(c2cc(CN3CCC(c4ccc5c(c4)C(C)(C)c4nc(=O)c6c(Cl)cccc6n4-5)CC3)no2)C(C)C)cc1 (stereo partly drawn)
A) 70 to 90%

Q) Fill in: Dmax of "Cc1ncsc1-c1ccc([C@H](C)NC(=O)[C@@H]2C[C@@H](O)CN2C(=O)[C@@H](c2cc(OCCCCN3CCC(c4ccc5c(c4)C(C)(C)c4nc(=O)c6c(Cl)cccc6n4-5)CC3)no2)C(C)C)cc1" is ___
A) > 90%

----------
TARGET SYSTEM: UniProt P51531
PROTOCOL NOTES: HiBiT assay for protein degradation, Hela SMARCA2-HiBiT cells (A series)
Type: cell-based
Design: Hela cells were genetically modified via CRISPR/Cas9 to fuse HiBiT to the carboxy terminus of SMARCA2; host or cells: HeLa (CRISPR/Cas9 HiBiT knock-in)
MEASUREMENT CONTEXT: read-out: SMARC A2 Hela HiBit DC50
ASSAY ENDPOINT: DC50

chemical_smiles=CC(C)(C)[C@H](NC(=O)C1(F)CC1)C(=O)N1C[C@H](O)C[C@H]1C(=O)N[C@@H](CCCCCN1CCC(c2ccc3c(c2)-n2c(nc(=O)c4c(Br)cccc42)C32CCCCC2)CC1)c1ccc(Cl)cc1 target_system="UniProt P51531" assay_endpoint=DC50 test_result="> 1000 nM"

Q) I'd like to know its DC50. The molecule in question is "Cc1ncsc1-c1ccc([C@H](CCCCCN2CCC(c3ccc4c(c3)C3(CCCCC3)c3nc(=O)c5c(Br)cccc5n3-4)CC2)NC(=O)[C@@H]2C[C@@H](O)CN2C(=O)[C@@H](NC(=O)C2(CN(C)C)CC2)C(C)(C)C)cc1"
A) < 100 nM

----------
TARGET SYSTEM: SMARCA4 (Homo sapiens)
PROTOCOL NOTES: HiBit assay in engineered HT1080 CRISPR knock-in cell, 6 hrs (B series), SMARCA4
Assay type: cell-based
MEASUREMENT CONTEXT: HT1080 CRISPR knock-in cells, 6 hrs incubation; read-out: SMARC A4 HT1080 HiBit DC50
Entries annotated with measured DC50

A selection of reference data follows.
molecule="Cc1cc(C(C(=O)N2C[C@H](O)C[C@H]2C(=O)N[C@@H](CN2CCC(CN3CCC(c4cccc5c4C(C)(C)c4nc(=O)c6c(Cl)cccc6n4-5)CC3)CC2)c2ccc(-c3scnc3C)cc2)C(C)C)on1 (stereo partly shown)" assay_endpoint=DC50 test_result="< 100 nM"
molecule=Cc1ncsc1-c1ccc([C@H](CCCCCn2cc(-c3ccc4c(c3)C(C)(C)c3nc(=O)c5c(Cl)cccc5n3-4)cn2)NC(=O)[C@@H]2C[C@@H](O)CN2C(=O)[C@@H](NC(=O)C2(F)CC2)C(C)(C)C)cc1 assay_endpoint=DC50 test_result="> 1000 nM"
molecule=Cc1ncsc1-c1ccc([C@H](C)NC(=O)[C@@H]2C[C@@H](O)CN2C(=O)[C@H](C(C)C)n2cc(C3CCN(CCCN4CCC(c5ccc6c(c5)-n5c(nc(=O)c7c(Cl)cccc75)C6(C)C)CC4)CC3)nn2)cc1 assay_endpoint=DC50 test_result="< 100 nM"

Could you now consider this next molecule?
Q) Which DC50 reading was recorded for the molecule "Cc1ncsc1-c1ccc([C@H](C)NC(=O)[C@@H]2C[C@@H](O)CN2C(=O)[C@H](C(C)C)n2cc(C3CCN(CCN4CCC(c5ccc6c(c5)-n5c(nc(=O)c7c(Cl)cccc75)C6(C)C)CC4)CC3)nn2)cc1" ?
A) < 100 nM

These entries and their values trace back to patent US20260092071A1.
